stated conditions: in methanol, 298.65 K

>  <chemical smiles>
NC(N)=S

>  <solubility (mole fraction)>
0.0534

$$$$

====

stated conditions: in ethanol, 302.75 K

>  <chemical smiles>
NC(N)=S

>  <solubility (mole fraction)>
0.0281

$$$$

====

stated conditions: in ethanol, 316.4 K
property label: solubility (mole fraction)

>  <chemical smiles>
NC(N)=S

>  <property label>
solubility (mole fraction)

>  <readout value>
0.0386

$$$$

====

stated conditions: in ethanol, 318.2 K

>  <chemical smiles>
NC(N)=S

>  <solubility (mole fraction)>
0.0399

$$$$

====

stated conditions: in methanol, 304.35 K

>  <chemical smiles>
NC(N)=S

>  <solubility (mole fraction)>
0.0606

$$$$
